FYI, the data here is from patent US20250222063A1.

Provide the recorded Half life in skin homogenate for the entries that follow.
# measurement description: Skin homogenate study (degradation half-life, LC-MS/MS)
# Assay type: in vitro ADME, human
# experimental parameters: pooled human skin homogenate, 37° C., compound working solution 40 μg/mL mixed with equal volume of homogenate
Non-standard residues stand in square brackets, D forms with d. Residues, ends and D or L forms follow the SMILES beside them.

Enquiry: Read the entry C[C@H](N)C(=O)N[C@@H](CCC(N)=O)C(=O)O [Ala-Gln] (H-Ala-Gln-OH) and write its reported Half life in skin homogenate.
Return: <0.083 h

Enquiry: Read the entry C[C@H](N)C(=O)N[C@H](C)C(=O)O [Ala-D-Ala] (H-Ala-[dA]-OH) and write its reported Half life in skin homogenate.
Return: >8 h

Enquiry: Read the entry NCC(=O)NCC(=O)O [Gly-Gly] (H-Gly-Gly-OH) and write its reported Half life in skin homogenate.
Return: >8 h

Enquiry: Read the entry CC(C)[C@H](N)C(=O)N[C@@H](Cc1ccc(O)cc1)C(=O)O [Val-Tyr] (H-Val-Tyr-OH) and write its reported Half life in skin homogenate.
Return: <0.125 h
